Reference source: paper PMC8129498

ENDPOINT_LABEL: melting point

// known answers, use as guide
Cc1cc2nnn(Cc3ccc(NC(=O)/C=C/C(=O)O)cc3)c2cc1C :: 256 to 258 °C
O=C(O)CCCCC(=O)Nc1ccc(-n2nnc3cc(Cl)c(Cl)cc32)cc1 :: 148 to 150 °C
O=C(CCCCC(=O)Nc1ccc(Cn2nnc3cc(Cl)c(Cl)cc32)cc1)Nc1ccc(Cn2nnc3cc(Cl)c(Cl)cc32)cc1 :: > 300 °C
O=C(CCCC(=O)Nc1ccc(Cn2nnc3cc(Cl)c(Cl)cc32)cc1)Nc1ccc(Cn2nnc3cc(Cl)c(Cl)cc32)cc1 :: 204 to 206 °C
O=C(O)CCC(=O)Nc1ccc(Cn2nnc3ccccc32)cc1 :: 193 to 195 °C
O=C(O)c1ccc(C(=O)Nc2ccc(Cn3nnc4ccccc43)cc2)s1 :: > 300 °C

# evaluate next
**Query** Record request: melting point value, item `Cc1cc2nnn(Cc3ccc(NC(=O)c4cccc(C(=O)O)n4)cc3)c2cc1C`
**Result** 214 to 216 °C

====

Measured melting point accompanies every entry in the list below.

// known answers, use as guide
O=C(O)c1cccc(C(=O)Nc2ccc(Cn3nnc4ccccc43)cc2)n1 :: 230 to 232 °C
O=C(Nc1ccc(-n2nc3cc(Cl)c(Cl)cc3n2)cc1)c1ccc(C(=O)Nc2ccc(-n3nc4cc(Cl)c(Cl)cc4n3)cc2)cc1 :: > 300 °C
O=C(CCCCC(=O)Nc1ccc(Cn2nnc3ccccc32)cc1)Nc1ccc(Cn2nnc3ccccc32)cc1 :: 231 to 232 °C
O=C(/C=C/C(=O)Nc1ccc(Cn2nnc3cc(Cl)c(Cl)cc32)cc1)Nc1ccc(Cn2nnc3cc(Cl)c(Cl)cc32)cc1 :: > 300 °C
O=C(O)c1ccc(C(=O)Nc2ccc(Cn3nnc4ccccc43)cc2)cc1 :: > 300 °C
O=C(O)CCCCC(=O)Nc1ccc(Cn2nnc3cc(Cl)c(Cl)cc32)cc1 :: 228 to 230 °C
O=C(O)CCCC(=O)Nc1ccc(-n2nnc3cc(Cl)c(Cl)cc32)cc1 :: 106 to 108 °C
Cc1cc2nnn(Cc3ccc(NC(=O)c4cccc(C(=O)Nc5ccc(Cn6nnc7cc(C)c(C)cc76)cc5)n4)cc3)c2cc1C :: 186 to 188 °C
O=C(O)CCCCC(=O)Nc1ccc(Cn2nnc3ccccc32)cc1 :: 134 to 136 °C
Cc1cc2nnn(Cc3ccc(NC(=O)CCCC(=O)Nc4ccc(Cn5nnc6cc(C)c(C)cc65)cc4)cc3)c2cc1C :: 253 to 255 °C

**Query** Record request: melting point value, item `O=C(CCC(=O)Nc1ccc(Cn2nnc3ccccc32)cc1)Nc1ccc(Cn2nnc3ccccc32)cc1`
**Result** 255 to 257 °C

**Query** Record request: melting point value, item `O=C(CCCCC(=O)Nc1ccc(-n2nnc3cc(Cl)c(Cl)cc32)cc1)Nc1ccc(-n2nnc3cc(Cl)c(Cl)cc32)cc1`
**Result** 293 to 294 °C

**Query** Record request: melting point value, item `O=C(Nc1ccc(-n2nc3cc(Cl)c(Cl)cc3n2)cc1)c1ccc(C(=O)Nc2ccc(-n3nc4cc(Cl)c(Cl)cc4n3)cc2)s1`
**Result** > 300 °C

**Query** Record request: melting point value, item `O=C(Nc1ccc(Cn2nnc3ccccc32)cc1)c1cccc(C(=O)Nc2ccc(Cn3nnc4ccccc43)cc2)n1`
**Result** 111 to 112 °C

**Query** Record request: melting point value, item `Cc1cc2nnn(Cc3ccc(NC(=O)CCC(=O)Nc4ccc(Cn5nnc6cc(C)c(C)cc65)cc4)cc3)c2cc1C`
**Result** 270 to 272 °C

**Query** Record request: melting point value, item `Cc1cc2nnn(Cc3ccc(NC(=O)CCCCC(=O)Nc4ccc(Cn5nnc6cc(C)c(C)cc65)cc4)cc3)c2cc1C`
**Result** 283 to 285 °C

**Query** Record request: melting point value, item `O=C(O)c1cccc(C(=O)Nc2ccc(Cn3nnc4cc(Cl)c(Cl)cc43)cc2)n1`
**Result** 175 to 177 °C

====

Measured CC50 at 96 h accompanies every entry in the list below.
PROCEDURE_TEXT: Antiproliferative assay (MTT), CRL 7065 control fibroblasts
Format: cell-based, human
PARTICULARS: MTT; human foreskin fibroblasts, non-tumor control; read-out: CC50 CRL 7065
The reply should contain only the number, in nM.

// known answers, use as guide
O=C(O)/C=C/C(=O)Nc1ccc(-n2nnc3cc(Cl)c(Cl)cc32)cc1 :: 1700
O=C(CCCC(=O)Nc1ccc(-n2nnc3cc(Cl)c(Cl)cc32)cc1)Nc1ccc(-n2nnc3cc(Cl)c(Cl)cc32)cc1 :: 750
O=C(CCCC(=O)Nc1ccc(Cn2nnc3cc(Cl)c(Cl)cc32)cc1)Nc1ccc(Cn2nnc3cc(Cl)c(Cl)cc32)cc1 :: 6700

# evaluate next
**Query** Record request: CC50 at 96 h value, item `O=C(/C=C/C(=O)Nc1ccc(-n2nnc3cc(Cl)c(Cl)cc32)cc1)Nc1ccc(-n2nnc3cc(Cl)c(Cl)cc32)cc1`
**Result** 370

====

ENDPOINT_LABEL: melting point

// known answers, use as guide
Cc1cc2nnn(Cc3ccc(NC(=O)CCCC(=O)O)cc3)c2cc1C :: 270 to 272 °C
O=C(CCCC(=O)Nc1ccc(Cn2nnc3ccccc32)cc1)Nc1ccc(Cn2nnc3ccccc32)cc1 :: 237 to 238 °C
O=C(Nc1ccc(Cn2nnc3cc(Cl)c(Cl)cc32)cc1)c1cccc(C(=O)Nc2ccc(Cn3nnc4cc(Cl)c(Cl)cc43)cc2)n1 :: > 300 °C
O=C(O)c1cccc(C(=O)Nc2ccc(-n3nnc4cc(Cl)c(Cl)cc43)cc2)n1 :: 240 °C

**Query** Record request: melting point value, item `O=C(Nc1ccc(Cn2nnc3cc(Cl)c(Cl)cc32)cc1)c1ccc(C(=O)Nc2ccc(Cn3nnc4cc(Cl)c(Cl)cc43)cc2)s1`
**Result** > 300 °C

**Query** Record request: melting point value, item `Cc1cc2nnn(Cc3ccc(NC(=O)/C=C/C(=O)Nc4ccc(Cn5nnc6cc(C)c(C)cc65)cc4)cc3)c2cc1C`
**Result** 117 to 119 °C

**Query** Record request: melting point value, item `O=C(O)CCCC(=O)Nc1ccc(Cn2nnc3ccccc32)cc1`
**Result** 152 to 154 °C

====

ENDPOINT_LABEL: melting point

// known answers, use as guide
O=C(CCC(=O)Nc1ccc(-n2nnc3cc(Cl)c(Cl)cc32)cc1)Nc1ccc(-n2nnc3cc(Cl)c(Cl)cc32)cc1 :: 264 to 265 °C
Cc1cc2nnn(Cc3ccc(NC(=O)CCCCC(=O)O)cc3)c2cc1C :: 203 to 204 °C
O=C(O)c1cccc(C(=O)Nc2ccc(-n3nc4cc(Cl)c(Cl)cc4n3)cc2)n1 :: 240 °C

**Query** Record request: melting point value, item `O=C(Nc1ccc(-n2nnc3cc(Cl)c(Cl)cc32)cc1)c1cccc(C(=O)Nc2ccc(-n3nnc4cc(Cl)c(Cl)cc43)cc2)n1`
**Result** > 300 °C

**Query** Record request: melting point value, item O=C(CCC(=O)Nc1ccc(Cn2nnc3cc(Cl)c(Cl)cc32)cc1)Nc1ccc(Cn2nnc3cc(Cl)c(Cl)cc32)cc1 [Compound 9a]
**Result** > 300 °C

**Query** Record request: melting point value, item `O=C(O)CCC(=O)Nc1ccc(Cn2nnc3cc(Cl)c(Cl)cc32)cc1`
**Result** 214 to 216 °C

**Query** Record request: melting point value, item `Cc1cc2nnn(Cc3ccc(NC(=O)c4ccc(C(=O)Nc5ccc(Cn6nnc7cc(C)c(C)cc76)cc5)s4)cc3)c2cc1C`
**Result** 225 to 227 °C

**Query** Record request: melting point value, item `O=C(Nc1ccc(-n2nc3cc(Cl)c(Cl)cc3n2)cc1)c1cccc(C(=O)Nc2ccc(-n3nc4cc(Cl)c(Cl)cc4n3)cc2)n1`
**Result** > 300 °C

====

ENDPOINT_LABEL: melting point

O=C(/C=C/C(=O)Nc1ccc(-n2nnc3cc(Cl)c(Cl)cc32)cc1)Nc1ccc(-n2nnc3cc(Cl)c(Cl)cc32)cc1 :: > 300 °C
O=C(Nc1ccc(-n2nnc3cc(Cl)c(Cl)cc32)cc1)c1ccc(C(=O)Nc2ccc(-n3nnc4cc(Cl)c(Cl)cc43)cc2)cc1 :: 197 to 199 °C
O=C(Nc1ccc(Cn2nnc3ccccc32)cc1)c1ccc(C(=O)Nc2ccc(Cn3nnc4ccccc43)cc2)s1 :: > 300 °C
O=C(O)CCC(=O)Nc1ccc(-n2nnc3cc(Cl)c(Cl)cc32)cc1 :: 163 to 164 °C
Cc1cc2nnn(Cc3ccc(NC(=O)c4ccc(C(=O)O)cc4)cc3)c2cc1C :: > 300 °C

**Query** Record request: melting point value, item `O=C(O)CCCC(=O)Nc1ccc(Cn2nnc3cc(Cl)c(Cl)cc32)cc1`
**Result** 173 to 175 °C

**Query** Record request: melting point value, item `O=C(O)/C=C/C(=O)Nc1ccc(-n2nnc3cc(Cl)c(Cl)cc32)cc1`
**Result** 231 to 233 °C

**Query** Record request: melting point value, item `Cc1cc2nnn(Cc3ccc(NC(=O)c4ccc(C(=O)O)s4)cc3)c2cc1C`
**Result** > 300 °C

**Query** Record request: melting point value, item `O=C(Nc1ccc(Cn2nnc3ccccc32)cc1)c1ccc(C(=O)Nc2ccc(Cn3nnc4ccccc43)cc2)cc1`
**Result** > 300 °C

**Query** Record request: melting point value, item `Cc1cc2nnn(Cc3ccc(NC(=O)CCC(=O)O)cc3)c2cc1C`
**Result** 218 to 220 °C
